# TESTED_SYSTEM: GRK2 (β2AR substrate) (Bos taurus, UniProt P21146)
# Sequence (P21146 1-689): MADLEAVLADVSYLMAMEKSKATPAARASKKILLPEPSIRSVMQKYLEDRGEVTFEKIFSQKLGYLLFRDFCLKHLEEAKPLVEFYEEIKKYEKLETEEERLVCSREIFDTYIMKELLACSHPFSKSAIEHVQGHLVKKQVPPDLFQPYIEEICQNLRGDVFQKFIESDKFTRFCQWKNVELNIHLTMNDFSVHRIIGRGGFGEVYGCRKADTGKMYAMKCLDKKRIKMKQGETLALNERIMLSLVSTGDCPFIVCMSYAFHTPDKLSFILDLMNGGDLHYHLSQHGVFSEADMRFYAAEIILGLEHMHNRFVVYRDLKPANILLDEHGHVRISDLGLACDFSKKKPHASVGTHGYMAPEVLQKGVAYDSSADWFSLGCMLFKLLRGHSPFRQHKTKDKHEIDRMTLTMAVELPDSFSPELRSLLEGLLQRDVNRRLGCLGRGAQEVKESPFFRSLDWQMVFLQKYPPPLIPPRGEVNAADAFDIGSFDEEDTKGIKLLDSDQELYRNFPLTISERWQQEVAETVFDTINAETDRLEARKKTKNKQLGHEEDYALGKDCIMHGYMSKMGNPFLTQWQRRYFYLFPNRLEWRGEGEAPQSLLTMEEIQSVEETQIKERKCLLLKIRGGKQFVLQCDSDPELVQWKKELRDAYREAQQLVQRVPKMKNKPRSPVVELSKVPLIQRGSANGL
# PROCEDURE_DETAILS: Inhibition of GRK2 phosphorylation of β2AR by GRK peptides
# Type: biochemical
pIC50: −log10 of the molar value. No end group written: not given here.
ENDPOINT_LABEL: pIC50

Please report the measured pIC50 for MADLEAVLADVYSL [GRK2 peptide]
~4.30

Attribution: paper PMC2736393
